Molecular target: BlaMab (M. abscessus endogenous class A beta-lactamase) (Mycobacteroides abscessus, UniProt B1MCI3)
Construct: -30 residue N-terminal truncated protein, 6x-His tagged
Sequence (B1MCI3 entry or part of it): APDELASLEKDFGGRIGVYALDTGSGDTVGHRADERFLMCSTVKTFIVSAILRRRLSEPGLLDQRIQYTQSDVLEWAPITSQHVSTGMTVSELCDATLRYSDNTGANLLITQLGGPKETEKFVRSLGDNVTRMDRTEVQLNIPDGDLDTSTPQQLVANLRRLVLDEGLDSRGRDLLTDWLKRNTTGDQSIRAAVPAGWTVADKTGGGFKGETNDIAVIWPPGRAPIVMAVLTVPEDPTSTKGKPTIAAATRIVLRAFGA
Experiment: nitrocefin hydrolysis kinetics (Ki app, k2/Ki, koff) with recombinant BlaMab; TLC penicillin V assay
measured_attribute: Ki (nM)
Field format: number, assumed nM, no unit text.

Challenge: Data request, read-out Ki, for O=C(NC1CCNCC1)[C@@H]1CC[C@@H]2CN1C(=O)N2OS(=O)(=O)O [REL, relebactam]
Response given: 184
